Please respond with reported inhibition at 10 µM for every item in the list.
studySystem: Recombinant human GR (Homo sapiens)
Construct: purchased Invitrogen P2816
Sequence (P04150 whole entry): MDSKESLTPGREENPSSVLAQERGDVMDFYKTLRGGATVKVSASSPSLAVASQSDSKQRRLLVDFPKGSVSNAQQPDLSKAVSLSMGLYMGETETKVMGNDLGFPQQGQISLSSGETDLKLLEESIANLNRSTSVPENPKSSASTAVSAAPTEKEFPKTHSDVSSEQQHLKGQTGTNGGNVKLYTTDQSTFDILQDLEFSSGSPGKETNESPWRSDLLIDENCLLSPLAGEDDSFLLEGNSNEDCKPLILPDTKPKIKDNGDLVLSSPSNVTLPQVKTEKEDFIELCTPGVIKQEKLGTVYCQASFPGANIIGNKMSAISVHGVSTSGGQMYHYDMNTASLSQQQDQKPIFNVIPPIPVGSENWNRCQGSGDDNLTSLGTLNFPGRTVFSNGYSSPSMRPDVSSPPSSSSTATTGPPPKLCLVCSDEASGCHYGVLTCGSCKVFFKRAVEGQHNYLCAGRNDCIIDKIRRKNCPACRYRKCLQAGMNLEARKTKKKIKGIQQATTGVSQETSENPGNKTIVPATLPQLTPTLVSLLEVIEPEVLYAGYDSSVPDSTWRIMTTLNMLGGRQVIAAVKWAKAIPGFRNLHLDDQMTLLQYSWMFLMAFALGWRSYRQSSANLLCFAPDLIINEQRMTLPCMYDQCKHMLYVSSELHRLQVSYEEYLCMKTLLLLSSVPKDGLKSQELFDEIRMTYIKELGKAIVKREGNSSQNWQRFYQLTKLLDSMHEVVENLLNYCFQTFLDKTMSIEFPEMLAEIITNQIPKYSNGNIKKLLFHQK
methodSummary: GR competitor assay by fluorescence polarization (binding activity to glucocorticoid receptor)
conditionDetails: 20 μM test compound solution, 10 μL per well plus 5 μL 4×GS1 and 5 μL 4×GR; 2 to 4 hours at room temperature; ratio of 100% or more is indicated by 100%
Answers are plain numbers, in %.

Study these solved cases before continuing.
COc1cc(OS(=O)(=O)CC(C)C)ccc1-c1ccc2c(c1COC(=O)c1ccc(C)s1)N(C)C(=O)C(C)(C)N2 [Compound 1-34]: 100
COc1cc(OS(=O)(=O)C2CCCC2)ccc1-c1ccc2c(c1CNc1cc(F)ccc1C)N(C)C(=O)C(C)(C)N2 [Compound 1-57]: 93
CCCS(=O)(=O)Oc1ccc(-c2ccc3c(c2COC(=O)c2ccc(C)s2)N(C)C(=O)C(C)(C)N3)c(OC)c1 [Compound 1-35]: 95

Note: attention shifts to another entry.
Hey, Recombinant human GR (Homo sapiens) data for COc1cc(OS(=O)(=O)C2CC2)ccc1-c1ccc2c(c1COC(=O)c1ccc(C)s1)N(C)C(=O)C(C)(C)N2 [Compound 1-32] : inhibition at 10 µM came out at 96

Ref: patent US8569493B2
